- System: Trypanosoma brucei rhodesiense
- Experiment Notes: Antitrypanosomal activity against Trypanosoma brucei rhodesiense STIB900 infected in NMRI mouse assessed as aparasitemic mouse at 5 mg/kg, ip for 4 consecutive days starting from day 3 post infection measured up to day 60 post infection relative to control
- Assay type: functional
Below, each entry is listed with its recorded Activity.

| Cpd Smiles | Activity |
| --- | --- |
| COc1cc(C(=N)N)ccc1-c1cc2ccc(C(=N)N)cc2[nH]1 | 100% |
| Cc1cc(-c2cc3ccc(C(=N)N)cc3[nH]2)ccc1C(=N)N | 75% |
| N=C(N)c1ccc(-c2cc3ccc(C(=N)N)cc3[nH]2)nc1 | 100% |
| N=C(N)c1ccc2cc(-c3ccc(C(=N)N)nc3)[nH]c2c1 | 25% |
| N=C(N)c1ccc(-c2cc3cc(C(=N)N)ccc3[nH]2)nc1 | 100% |
| N=C(N)c1ccc2[nH]c(-c3ccc(C(=N)N)nc3)cc2c1 | 25% |
| N=C(N)c1ccc2[nH]c(-c3ccc(C(=N)N)o3)cc2c1 | 100% |
| Cc1cc(-c2cc3cc(C(=N)N)ccc3[nH]2)ccc1C(=N)N | 75% |

----------
- Experiment Notes: Binding affinity to poly(dA-dT)n DNA (unknown origin) assessed as change in melting temperature at 0.3 molar ratio of compound:DNA by spectrophotometric analysis

| Cpd Smiles | Quantity Unit | Censoring Operator | ΔTm |
| --- | --- | --- | --- |
| N=C(N)c1ccc2cc(-c3ccc(C(=N)N)o3)[nH]c2c1 | °C | = | 11 |
| N=C(N)c1ccc2cc(-c3ccc(C(=N)N)nc3)[nH]c2c1 | °C | = | 15.3 |
| COc1ccc(-c2cc3ccc(C(=N)N)cc3[nH]2)cc1 | °C | = | 12.6 |
| N=C(N)c1ccc2[nH]c(-c3ccc(C(=N)N)nc3)cc2c1 | °C | = | 12.1 |
| N=C(N)c1ccc(-c2cc3cc(C(=N)N)ccc3[nH]2)cc1 | °C | = | 19.2 |
| N=C(N)c1ccc(-c2cc3ccc(C(=N)N)cc3[nH]2)cc1 | °C | > | 27 |
| N=C(N)c1ccc(-c2cc3cc(C(=N)N)ccc3[nH]2)nc1 | °C | > | 26 |
| N=C(N)c1ccc(-c2cc3ccc(C(=N)N)cc3[nH]2)nc1 | °C | = | 22.1 |
| Cc1cc(-c2cc3ccc(C(=N)N)cc3[nH]2)ccc1C(=N)N | °C | > | 26 |
| N=C(N)c1ccc2[nH]c(-c3ccc(C(=N)N)o3)cc2c1 | °C | = | 21.4 |
| Cc1cc(-c2cc3cc(C(=N)N)ccc3[nH]2)ccc1C(=N)N | °C | = | 15.3 |
| COc1cc(C(=N)N)ccc1-c1cc2ccc(C(=N)N)cc2[nH]1 | °C | > | 26 |
| N=C(N)c1ccc2cc(-c3ccc(C(=N)N)s3)[nH]c2c1 | °C | = | 10 |

----------
- Experiment Notes: Selectivity index, ratio of IC50 for rat L6 cells to IC50 for Trypanosoma brucei rhodesiense STIB900 bloodstream forms
- Assay type: toxicity
- Particulars: read-out: Ratio IC50
Given measured selectivity ratio, output condition met if it is greater than or equal to 800 and condition not met if not.

| Compound | Classification |
| --- | --- |
| N=C(N)c1ccc2cc(-c3ccc(C(=N)N)nc3)[nH]c2c1 | condition not met |
| COc1ccc(-c2cc3ccc(C(=N)N)cc3[nH]2)cc1 | condition not met |
| N=C(N)c1ccc(-c2cc3ccc(C(=N)N)cc3[nH]2)nc1 | condition not met |
| Cc1cc(-c2cc3ccc(C(=N)N)cc3[nH]2)ccc1C(=N)N | condition met |
| N=C(N)c1ccc2[nH]c(-c3ccc(C(=N)N)o3)cc2c1 | condition met |
| Cc1cc(-c2cc3cc(C(=N)N)ccc3[nH]2)ccc1C(=N)N | condition met |
| N=C(N)c1ccc(-c2cc3cc(C(=N)N)ccc3[nH]2)nc1 | condition met |
| N=C(N)c1ccc2cc(-c3ccc(C(=N)N)s3)[nH]c2c1 | condition not met |
| COc1cc(C(=N)N)ccc1-c1cc2ccc(C(=N)N)cc2[nH]1 | condition met |
| N=C(N)c1ccc2[nH]c(-c3ccc(C(=N)N)nc3)cc2c1 | condition not met |
| N=C(N)c1ccc(-c2cc3ccc(C(=N)N)cc3[nH]2)cc1 [DAPI] | condition not met |
